The reported measurements were obtained from patent US20100227858A1.

Target: recombinant mTOR (Homo sapiens)
Assay: In vitro mTOR kinase assay, Test (a)(i) (AlphaScreen)
Assay type: biochemical
Conditions: enzyme assay; values may represent the average of two or more measurements; read-out: Test (a)(i) IC50
measurement label: pIC50
One number for each entry, as −log10 of the molar value.

C[C@@H]1CN(c2nc(CS(C)(=O)=O)cc(N3CCOC[C@@H]3C)n2)C[C@H](C)O1 :: 5.78
C[C@H]1COCCN1c1cc(CS(=O)(=O)c2ccccc2)nc(-c2ccc3[nH]ccc3c2)n1 :: 6.92
C[C@H]1COCCN1c1cc(CS(C)(=O)=O)nc(-c2ccc3[nH]ccc3c2)n1 :: 6.52

// moving on: another record for pIC50
Prompt: Any idea what its pIC50 is? The compound is `CCS(=O)(=O)Cc1cc(N2CCOC[C@H]2C)nc(-c2ccc3[nH]ccc3c2)n1`
Response: 6.45

###

Record form. Attribute: IC50. Fill in for each entry.
Target: recombinant mTOR (Homo sapiens)
Experiment: In vitro mTOR kinase assay, Test (a)(i) (AlphaScreen)
Type: biochemical
Details: enzyme assay; values may represent the average of two or more measurements; read-out: Test (a)(i) IC50
Source text: (a)(i) In Vitro mTOR Kinase Assay […]
Answers are plain numbers, in µM.

Some solved cases for reference:
C[C@H]1COCCN1c1cc(N2CCOC[C@@H]2C)nc(NC(=O)c2ccc(NC(=O)Nc3ccccc3)cc2)n1 :: 1.12
C[C@H]1COCCN1c1cc(CS(C)(=O)=O)nc(N2CCCC(O)C2)n1 (some centres unmarked) :: 2.3
COc1cccc(C(=O)Nc2nc(N3CCOC[C@@H]3C)cc(N3CCOC[C@@H]3C)n2)c1 :: 0.364
C[C@H]1COCCN1c1cc(C(C)(C)S(C)(=O)=O)nc(-c2ccc3cc[nH]c3c2)n1 :: 0.88
C[C@H]1COCCN1c1cc(CS(C)(=O)=O)nc(-c2ccc3[nH]c(C(N)=O)cc3c2)n1 :: 0.336

Batch: IC50 for all items listed.
1. CC(=O)Nc1cc(C(=O)Nc2cc(N3CCOC[C@@H]3C)nc(N3CCOC[C@@H]3C)n2)ccn1
2. COc1ccc(C(=O)Nc2cc(N3CCOC[C@@H]3C)nc(N3CCOC[C@@H]3C)n2)cc1
3. C[C@H]1COCCN1c1cc(CS(C)(=O)=O)nc(-c2cccc(-c3cn[nH]c3)c2)n1

Response:
1: 26.4; 2: 0.181; 3: 0.437

###

Molecular target: recombinant mTOR (Homo sapiens)
Test: In vitro mTOR kinase assay, Test (a)(i) (AlphaScreen)
Format: biochemical
Conditions: enzyme assay; values may represent the average of two or more measurements; read-out: Test (a)(i) IC50
Record form. Attribute: IC50. Fill in for each entry.
Give bare numbers, in nM.

Some solved cases for reference:
COc1ccccc1C(=O)Nc1cc(N2CCOC[C@@H]2C)nc(N2CCOC[C@@H]2C)n1 [Example 9] :: 894
C[C@H]1COCCN1c1cc(CS(C)(=O)=O)nc(-c2ccc3cc[nH]c3c2)n1 [Example 35] :: 478
C[C@H]1COCCN1c1cc(CS(=O)(=O)c2ccccc2)nc(-c2cccc3[nH]ccc23)n1 [Example 44] :: 366
C[C@H]1COCCN1c1cc(CS(C)(=O)=O)nc(-c2ccc(-c3cn[nH]c3)cc2)n1 [Example 31] :: 990
CCC(C)[S+]([O-])Cc1cc(N2CCOC[C@H]2C)nc(-c2ccc3[nH]ccc3c2)n1 (stereo partly shown) [Example 27] :: 1170

Batch: IC50 for all items listed.
1. COc1ccc(C(=O)Nc2nc(N3CCOC[C@@H]3C)cc(N3CCOC[C@@H]3C)n2)cc1C(F)(F)F [Example 4]
2. C[C@H]1COCCN1c1cc(CS(C)(=O)=O)nc(Nc2cc[nH]n2)n1 [Example 30]
3. CC(=O)Nc1ccc(C(=O)Nc2cc(N3CCOC[C@@H]3C)nc(N3CCOC[C@@H]3C)n2)cn1 [Example 8]
4. C[C@H]1COCCN1c1cc(NC(=O)c2ccc(NC(=O)Nc3ccccc3)cc2)nc(N2CCOC[C@@H]2C)n1 [Example 17]
5. CC(=O)Nc1ccc(C(=O)Nc2nc(N3CCOC[C@@H]3C)cc(N3CCOC[C@@H]3C)n2)cn1 [Example 13]
6. C[C@H]1COCCN1c1cc(C(C)(C)S(C)(=O)=O)nc(-c2ccc3[nH]cnc3c2)n1 [Example 39]

Response:
442
897
1780
9390
1580
192

Batch: IC50 for all items listed.
1. C[C@H]1COCCN1c1cc(CS(C)(=O)=O)nc(-c2cnc3[nH]ccc3c2)n1 [Example 23]
2. C[C@H]1COCCN1c1cc(C(C)(C)S(C)(=O)=O)nc(-c2cccc3[nH]ccc23)n1 [Example 42]

Response:
1: 37.7; 2: 335

Batch: IC50 for all items listed.
1. C[C@H]1COCCN1c1cc(CS(C)(=O)=O)nc(-c2cnc(-c3cn[nH]c3)s2)n1 [Example 34]
2. CCC(C)S(=O)(=O)Cc1cc(N2CCOC[C@@H]2C)nc(-c2ccc3[nH]ccc3c2)n1 (stereo partly shown) [Example 26]
3. C[C@H]1COCCN1c1cc(CS(C)(=O)=O)nc(-c2ccc3c(C(N)=O)c[nH]c3c2)n1 [Example 36]

Response:
1. 573
2. 1380
3. 1640

###

Target: recombinant mTOR (Homo sapiens, UniProt P42345)
Sequence (P42345 1362-2549): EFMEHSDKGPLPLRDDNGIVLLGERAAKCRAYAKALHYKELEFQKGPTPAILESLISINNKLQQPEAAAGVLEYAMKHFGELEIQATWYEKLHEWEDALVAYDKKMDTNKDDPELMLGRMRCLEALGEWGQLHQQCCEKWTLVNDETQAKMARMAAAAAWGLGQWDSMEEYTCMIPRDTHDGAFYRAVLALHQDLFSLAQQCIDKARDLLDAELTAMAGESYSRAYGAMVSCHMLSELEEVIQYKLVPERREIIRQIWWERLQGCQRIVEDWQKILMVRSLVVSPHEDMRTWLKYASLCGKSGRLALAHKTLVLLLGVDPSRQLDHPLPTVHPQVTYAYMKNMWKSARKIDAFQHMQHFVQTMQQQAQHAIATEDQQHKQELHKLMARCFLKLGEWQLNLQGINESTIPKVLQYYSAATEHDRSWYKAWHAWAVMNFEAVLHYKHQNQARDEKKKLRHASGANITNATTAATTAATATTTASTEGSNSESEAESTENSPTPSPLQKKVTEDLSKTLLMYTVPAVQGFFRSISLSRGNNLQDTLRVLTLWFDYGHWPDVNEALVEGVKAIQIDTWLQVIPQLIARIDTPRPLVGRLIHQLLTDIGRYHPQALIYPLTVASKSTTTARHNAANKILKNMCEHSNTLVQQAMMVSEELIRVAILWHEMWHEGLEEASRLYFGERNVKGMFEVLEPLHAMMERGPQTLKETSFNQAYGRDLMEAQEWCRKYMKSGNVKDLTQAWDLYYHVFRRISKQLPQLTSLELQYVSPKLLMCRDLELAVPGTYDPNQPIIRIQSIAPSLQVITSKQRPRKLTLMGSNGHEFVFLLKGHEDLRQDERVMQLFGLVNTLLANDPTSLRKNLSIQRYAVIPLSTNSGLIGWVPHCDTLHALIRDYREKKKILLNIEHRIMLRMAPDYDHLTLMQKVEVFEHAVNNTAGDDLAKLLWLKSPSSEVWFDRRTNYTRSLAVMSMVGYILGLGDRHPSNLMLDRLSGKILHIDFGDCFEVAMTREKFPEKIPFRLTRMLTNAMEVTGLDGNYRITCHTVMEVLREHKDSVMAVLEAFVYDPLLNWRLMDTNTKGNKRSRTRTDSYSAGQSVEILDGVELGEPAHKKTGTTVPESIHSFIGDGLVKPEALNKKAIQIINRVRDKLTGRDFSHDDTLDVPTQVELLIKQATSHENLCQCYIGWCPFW
Test: In vitro mTOR kinase assay, Test (a)(i) (AlphaScreen)
Assay type: biochemical
Conditions: enzyme assay; values may represent the average of two or more measurements; read-out: Test (a)(i) IC50
Record form. Attribute: log10 IC50. Fill in for each entry.
Note the log scale: values are log10 of IC50 expressed in nM.

Some solved cases for reference:
C[C@H]1COCCN1c1cc(CS(C)(=O)=O)nc(N2CCOCC2)n1 [Example 22] :: 3.23
COc1cccc(C(=O)Nc2cc(N3CCOC[C@@H]3C)nc(N3CCOC[C@@H]3C)n2)c1 [Example 3] :: 2.37
CC(=O)Nc1cc(C(=O)Nc2nc(N3CCOC[C@@H]3C)cc(N3CCOC[C@@H]3C)n2)ccn1 [Example 15] :: 3.98
C[C@H]1COCCN1c1cc(CS(=O)(=O)c2ccccc2)nc(-c2ccc3cc[nH]c3c2)n1 [Example 47] :: 2.71
C[C@H]1COCCN1c1cc(C(C)(C)S(C)(=O)=O)nc(-c2ccc3[nH]ccc3c2)n1 [Example 41] :: 2.07
COc1ccc(C(=O)Nc2nc(N3CCOC[C@@H]3C)cc(N3CCOC[C@@H]3C)n2)cn1 [Example 6] :: 3.43

Batch: log10 IC50 for all items listed.
1. COc1ccc(C(=O)Nc2nc(N3CCOC[C@@H]3C)cc(N3CCOC[C@@H]3C)n2)cc1F [Example 16]
2. COc1cc(C(=O)Nc2cc(N3CCOC[C@@H]3C)nc(N3CCOC[C@@H]3C)n2)ccn1 [Example 7]

Response:
1. 3.39
2. 3.45

Batch: log10 IC50 for all items listed.
1. COc1ccc(C(=O)Nc2cc(N3CCOC[C@@H]3C)nc(N3CCOC[C@@H]3C)n2)cc1C(F)(F)F [Example 2]
2. C[C@H]1COCCN1c1cc(CS(C)(=O)=O)nc(-c2ccc3[nH]cc(C(N)=O)c3c2)n1 [Example 33]
3. C[C@H]1COCCN1c1cc(C(C)(C)S(C)(=O)=O)nc(-c2cnc3[nH]ccc3c2)n1 [Example 40]
4. C[C@H]1COCCN1c1cc(CS(=O)(=O)c2ccccc2)nc(-c2ccc3[nH]cnc3c2)n1 [Example 48]
5. C[C@@H]1COCCN1c1cc(CS(C)(=O)=O)nc(-c2ccc3[nH]ccc3c2)n1 [Example 25]
6. C[C@H]1COCCN1c1cc(CS(C)(=O)=O)nc(-c2ccc3cc(C(N)=O)[nH]c3c2)n1 [Example 38]
7. COc1ccccc1C(=O)Nc1nc(N2CCOC[C@@H]2C)cc(N2CCOC[C@@H]2C)n1 [Example 14]

Response:
2.37
2.19
2.77
2.03
2.59
3.73
2.95

Prompt: Any idea what its log10 IC50 is? The compound is COc1ccc(C(=O)Nc2cc(N3CCOC[C@@H]3C)nc(N3CCOC[C@@H]3C)n2)cc1F [Example 11]
Response: 3.55

###

Record form. Attribute: pIC50. Fill in for each entry.
Molecular target: recombinant mTOR (Homo sapiens, UniProt P42345)
Experiment: In vitro mTOR kinase assay, Test (a)(i) (AlphaScreen)
Format: biochemical
Conditions: enzyme assay; values may represent the average of two or more measurements; read-out: Test (a)(i) IC50
Numbers only, as −log10 of the molar value.

Some solved cases for reference:
COc1cc(C(=O)Nc2nc(N3CCOC[C@@H]3C)cc(N3CCOC[C@@H]3C)n2)ccn1 :: 5.40
C[C@H]1COCCN1c1cc(CS(=O)(=O)c2ccccc2)nc(-c2cnc3[nH]ccc3c2)n1 :: 6.03
CC(C)S(=O)(=O)Cc1cc(N2CCOC[C@H]2C)nc(-c2ccc3[nH]ccc3c2)n1 :: 6.20

// moving on: another record for pIC50
Prompt: Any idea what its pIC50 is? The compound is `COc1ccc(C(=O)Nc2nc(N3CCOC[C@@H]3C)cc(N3CCOC[C@@H]3C)n2)cc1`
Response: 5.33
